Test system: COLO 205 colon
Assay: NCI tumour cell line growth inhibition, 48 h
log10(TGI) by entry:
Please keep in mind that the values are log10 of TGI expressed in µM.

Worked cases, answers included:
# COMPOUND, log10(TGI)
measured = [
    ("Nc1nc(SCC#CCCl)c2[nH]cnc2n1", 1.17),
    ("O=C1c2ccc3c4c(ccc(c24)C(=O)N1CCCCO)C(=O)N(CCCCO)C3=O", 0.40),
    ("COC(=O)CC(=O)OC1C[C@@H]2CCC3C(C)(C)CCC[C@]3(C)C23CC[C@@]1(C)C3 (some centres not stated)", 1.53),
]

Below: the item to evaluate.
Asked: Name the reported log10(TGI) value associated with the compound CC(NC(CC12CC3CC(CC(C3)C1)C2)C(N)=O)c1ccccc1 (configuration not stated)
Given back: 1.46

----------
System: SNB-19 CNS
Test: NCI tumour cell line growth inhibition, 48 h
TGI of 30 µM or higher: class 1. Under 30 µM: class 0.

# MOLECULE, SYSTEM TESTED, CLASS NAME
records = [
    ("COc1cc2c(c3oc4c(O)cccc4c(=O)c13)CC(C(C)(O)CCl)O2 (centres undefined)", "SNB-19 CNS", "class 0"),
    ("COc1cc([C@H]2OC[C@@H]3C(c4cc(OC)c5c(c4)OCO5)OC[C@H]23)cc(OC)c1OC (some centres undefined)", "SNB-19 CNS", "class 1"),
    ("Cc1nc2nnc(CCCCCCCCc3nnc4nc(C)[nH]n34)n2[nH]1", "SNB-19 CNS", "class 1"),
    ("O=C1c2ccccc2CC12Cc1ccc3c(c1C2=O)CCCC3 (centres undefined)", "SNB-19 CNS", "class 1"),
    ("CC(=O)O[C@H]1CSC[C@@H](OC(C)=O)C1[N+](=O)[O-] (some centres undefined)", "SNB-19 CNS", "class 1"),
    ("O=C1N[C@@H]([C@H]2CC[C@H](Cl)CN2)C(=O)N[C@H]1[C@H]1CC[C@H](Cl)CN1", "SNB-19 CNS", "class 1"),
]

Asked: Has "O=[N+]([O-])c1ccc(CSC2=C(c3ccc(Cl)cc3)S/C(=C3\SC(SCc4ccc([N+](=O)[O-])cc4)=C(c4ccc(Cl)cc4)S3)S2)cc1" a recorded TGI greater than or equal to 30 µM?
Given back: class 1

Asked: And what about the molecule COc1cc2c(cc1O)CCN[C@@]21CS[C@H]2c3c(OC(C)=O)c(C)c4c(c3C(COC1=O)N1C2C2NC(Cc3cc(C)c(OC)c(O)c32)[C@@H]1O)OCO4 (some centres undefined) ?
Given back: class 0

Asked: And what about the molecule "C=C(CN1CCN(c2cc(C(F)(F)F)cc(C(F)(F)F)c2)CC1)c1ccc(C(=O)Nc2ccccc2N)cc1" ?
Given back: class 1

Asked: And what about the molecule "O=C1c2cccc3cc([N+](=O)[O-])cc(c23)C(=O)N1c1ccc(OCCN2CCCC2)cc1" ?
Given back: class 1

Asked: And what about the molecule COC(=O)CC(=O)OC1C[C@@H]2CCC3C(C)(C)CCC[C@]3(C)C23CC[C@@]1(C)C3 (some centres undefined) ?
Given back: class 1

Asked: And what about the molecule "C(=C\c1ccc2ccccc2c1Nc1ccccc1)/c1ccccc1" ?
Given back: class 1

Asked: And what about the molecule "N#Cc1cnn(C(=O)c2nn(-c3ccc(Cl)cc3)cc2O)c1N" ?
Given back: class 1

Asked: And what about the molecule "Cc1cccc(NC(=S)NNC(=O)c2cc(-c3ccccc3)nc3ccccc23)c1" ?
Given back: class 1

Asked: And what about the molecule "C=CCN(C(C)=O)c1cc(OCc2ccccc2)c2c(c1)c(C)cn2S(=O)(=O)c1ccccc1" ?
Given back: class 1

Asked: And what about the molecule Clc1ccc(Cc2nc3cc(Cl)c(Cl)cc3n2CC2CCCN3CCCCC23)cc1 (centres undefined) ?
Given back: class 0

Asked: And what about the molecule "O=C(O)c1ccccc1Sc1ccc(C=C2NC(=S)N(c3ccccc3)C2=O)s1" ?
Given back: class 1

Values were extracted from PubChem BioAssay (NCI).
